IC50 for assorted molecules
tested_on: DRAK1 (Homo sapiens (Human), UniProt Q9UEE5)
Sequence (Q9UEE5 whole entry): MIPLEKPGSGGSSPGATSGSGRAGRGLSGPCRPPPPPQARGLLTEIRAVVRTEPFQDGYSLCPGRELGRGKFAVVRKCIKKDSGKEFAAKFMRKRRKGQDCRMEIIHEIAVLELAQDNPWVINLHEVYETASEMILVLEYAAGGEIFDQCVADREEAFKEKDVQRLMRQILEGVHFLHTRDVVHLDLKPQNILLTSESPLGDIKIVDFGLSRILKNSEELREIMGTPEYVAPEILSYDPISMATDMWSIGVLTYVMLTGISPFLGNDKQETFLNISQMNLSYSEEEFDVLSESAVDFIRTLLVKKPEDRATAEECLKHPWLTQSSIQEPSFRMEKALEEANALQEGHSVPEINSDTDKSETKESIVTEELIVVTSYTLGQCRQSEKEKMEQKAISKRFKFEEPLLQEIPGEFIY
protocol_details: DRAK1 kinase activity inhibition (ADP-Glo, MRCL3 peptide substrate)
Type: biochemical
details: Table 3; recombinant enzyme, 1 uM ATP, 1 uM MRCL3 peptide, 30° C., 2 hours

| molecular_string | tested_on | IC50 (nM) |
| --- | --- | --- |
| NCCCCNc1nc(Nc2ccc(Cl)cc2)ncc1Cl | DRAK1 (Homo sapiens (Human), UniProt Q9UEE5) | 480 |
| NCCCNc1nc(Nc2ccc(Br)cc2)ncc1Cl | DRAK1 (Homo sapiens (Human), UniProt Q9UEE5) | 390 |
| Cc1ccc(Nc2ncc(Cl)c(NCCCN)n2)cc1C | DRAK1 (Homo sapiens (Human), UniProt Q9UEE5) | 220 |

----------
tested_on: DRAK1 (Homo sapiens (Human), UniProt Q9UEE5)
protocol_details: DRAK1 kinase activity inhibition (ADP-Glo, MRCL3 peptide substrate)
Format: biochemical
details: Table 3; recombinant enzyme, 1 uM ATP, 1 uM MRCL3 peptide, 30° C., 2 hours
reported_property: log10 IC50 (log10 of the value in nM)

| compound | log10 IC50 |
| --- | --- |
| CCc1ccc(Nc2ncc(Cl)c(NCCCN)n2)cc1 | 2.57 |
| CC(C)c1ccc(Nc2ncc(Cl)c(NCCCN)n2)cc1 | 2.38 |
| Cc1ccc(Nc2ncc(Cl)c(NCCCN)n2)cc1Cl | 2.34 |
| NCCCNc1nc(Nc2ccc(F)c(Cl)c2)ncc1Cl | 2.30 |
| CCCCCCc1ccc(Nc2ncc(Cl)c(NCCCN)n2)cc1 | 3.28 |
| NCCCNc1nc(Nc2ccc3c(c2)CCCC3)ncc1Cl | 2.20 |
| NCCCNc1nc(Nc2ccc(Oc3ccccc3)cc2)ncc1Cl | 2.26 |
| NCCCNc1nc(Nc2ccc(F)cc2)ncc1Cl | 2.46 |
| COc1ccc(Nc2ncc(Cl)c(NCCCN)n2)cc1Cl | 2.26 |
| NCCCNc1nc(Nc2ccc(N3CCNCC3)cc2)ncc1Cl | 1.48 |
| NCCCNc1nc(Nc2ccc(Cl)cc2)ncc1Br [Comparative Example 6, reference compound] | 1.60 |
| NCCCNc1nc(Nc2ccc3c(c2)CCCC3=O)ncc1Cl | 2.36 |
| NCCCNc1nc(Nc2ccc(Br)c(C(F)(F)F)c2)ncc1Cl | 2.87 |
| NCCCNc1nc(Nc2ccc(Cl)c(Cl)c2)ncc1Cl | 2.49 |
| NCCCNc1nc(Nc2ccc(Cl)cc2)ncc1Cl | 2.61 |
| NCCCNc1nc(Nc2ccc3c(c2)OCCO3)ncc1Cl | 2.34 |
| NCCCNc1nc(Nc2ccc3c(c2)CCC3)ncc1Cl | 2.34 |
| NCCCNc1nc(Nc2ccc(S(=O)(=O)c3ccc([N+](=O)[O-])cc3)cc2)ncc1Cl | 2.04 |
| NCCCNc1nc(Nc2ccc3c(c2)OCO3)ncc1Cl | 2.54 |
| Cc1cnc(Nc2ccc(Cl)cc2)nc1NCCCN | 2.85 |
| NCCCNc1nc(Nc2ccc(F)c(C(F)(F)F)c2)ncc1Cl | 2.26 |

----------
pIC50 for assorted compounds
tested_on: UniProtKB O94768
Sequence (O94768 whole entry): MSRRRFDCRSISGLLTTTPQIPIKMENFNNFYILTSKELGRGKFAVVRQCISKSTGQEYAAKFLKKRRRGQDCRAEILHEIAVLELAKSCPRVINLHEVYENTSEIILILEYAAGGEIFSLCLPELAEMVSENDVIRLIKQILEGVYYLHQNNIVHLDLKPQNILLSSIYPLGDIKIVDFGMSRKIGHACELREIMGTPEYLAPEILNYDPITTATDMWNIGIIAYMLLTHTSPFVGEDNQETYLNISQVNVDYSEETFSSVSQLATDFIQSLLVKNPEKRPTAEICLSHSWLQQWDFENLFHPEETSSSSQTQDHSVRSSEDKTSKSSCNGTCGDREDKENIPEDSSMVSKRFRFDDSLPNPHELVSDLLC
protocol_details: DRAK2 kinase activity inhibition (ADP-Glo, MRCL3 peptide substrate)
Type: biochemical
details: Table 4; Experimental Example 2, DRAK2 selectivity evaluation
pIC50: −log10 of the molar value.
reported_property: pIC50

| compound | tested_on | endpoint_result |
| --- | --- | --- |
| NCCCNc1nc(Nc2ccc(Cl)cc2)ncc1Cl | UniProtKB O94768 | 7.42 |
| Cc1cnc(Nc2ccc(Cl)cc2)nc1NCCCN | UniProtKB O94768 | 7.64 |
| NCCCNc1nc(Nc2ccc(Cl)cc2)ncc1Br [Comparative Example 6, reference compound] | UniProtKB O94768 | 7.57 |
